Study target: Chymotrypsinogen A (Bos taurus, UniProt P00766)
pIC50: −log10 of the molar value. Starred links: 1 amine or outer side, 2 acyl side, 3 side chain; linkers in the order of their positions; H or OH if unused. Positions of bridges follow the written chain, without caps; N, C: chain ends. Non-standard residues stand in square brackets, D forms with d. Residues, ends and D or L forms follow the SMILES beside them. X2 = O=C(/C=C/c1csc([C@H](Cc2ccc(O)cc2)N[*:1])n1)[*:2]; X1 = CC[C@H](C)[C@H](N[*:1])C(=O)C(=O)[*:2]; Cya = N[C@@H](CS(=O)(=O)O)C(=O)O; Nva = CCC[C@H](N)C(=O)O; Abu = CC[C@H](N)C(=O)O; Dap = NC[C@H](N)C(=O)O
Tag: 1 (yes) if measured pIC50 is not below 6, 0 (no) if it is.

1. CC[C@H](C)[C@@H]1NC(=O)[C@H](CC(C)C)NC(=O)[C@@H](N2C(=O)N[C@@H](C)C2=O)CNC(=O)[C@H](CS(=O)(=O)O)NC(=O)/C=C/c2csc(n2)[C@H](Cc2ccc(O)cc2)NC(=O)C1=O
0 (no)
2. O=S(=O)(F)Cc1ccccc1 [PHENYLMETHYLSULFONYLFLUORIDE]
1 (yes)
3. CCC[C@@H]1NC(=O)[C@@H](NC(=O)[C@H](C)N)CNC(=O)[C@H](CS(=O)(=O)O)NC(=O)/C=C/c2csc(n2)[C@H](Cc2ccc(O)cc2)NC(=O)C(=O)[C@H]([C@@H](C)CC)NC1=O (H-A[Dap][Nva][X1][X2][Cya]; lactam 2-C)
0 (no)
4. CC[C@@H]1NC(=O)[C@@H](NC(=O)[C@H](C)N)CNC(=O)[C@H](CS(=O)(=O)O)NC(=O)/C=C/c2csc(n2)[C@H](Cc2ccc(O)cc2)NC(=O)C(=O)[C@H]([C@@H](C)CC)NC1=O (H-A[Dap][Abu][X1][X2][Cya]; lactam 2-C)
0 (no)
5. CC[C@H](C)[C@@H]1NC(=O)[C@H](CC(C)C)NC(=O)[C@@H](NC(=O)[C@H](C)N)CNC(=O)[C@H](CS(=O)(=O)O)NC(=O)/C=C/c2csc(n2)[C@H](Cc2ccc(O)cc2)NC(=O)C1=O (H-A[Dap]L[X1][X2][Cya]; lactam 2-C)
0 (no)
